molecular target: human CB2 receptors (Homo sapiens (Human), UniProt P34972); assay: Affinity binding test on human CB2 receptors (tritiated ligand, membranes of recombinant cell lines); conditions: concentration causing 50% inhibition of specific binding of the tritiated ligand, read-out: IC50 (nM) hCB2
Sequence (P34972 whole entry): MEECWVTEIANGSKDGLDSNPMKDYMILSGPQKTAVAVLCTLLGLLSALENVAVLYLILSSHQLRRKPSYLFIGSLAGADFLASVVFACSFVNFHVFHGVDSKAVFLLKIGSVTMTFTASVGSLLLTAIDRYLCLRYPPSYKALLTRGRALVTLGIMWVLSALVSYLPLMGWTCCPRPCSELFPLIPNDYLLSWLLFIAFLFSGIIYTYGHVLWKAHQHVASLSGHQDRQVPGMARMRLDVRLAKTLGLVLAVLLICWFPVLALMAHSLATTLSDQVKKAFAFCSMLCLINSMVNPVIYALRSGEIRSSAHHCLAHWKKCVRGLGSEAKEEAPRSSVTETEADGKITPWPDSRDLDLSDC
For each record, check the reported IC50: if it is below 20 nM write Criterion met, else write Criterion not met.

Study these solved cases before continuing.
[
  {
    "Compound": "COc1nc(NCCc2ccc(F)cc2)nc(-c2ccc3c(c2)OCCO3)n1 [Compound 8]",
    "Category Label": "Criterion met"
  },
  {
    "Compound": "COc1nc(NCCc2ccc(OC(F)F)cc2)nc(-c2cc3cc(F)ccc3[nH]2)n1 [Compound 43]",
    "Category Label": "Criterion not met"
  },
  {
    "Compound": "COc1nc(NCCc2ccc(OC(F)(F)F)cc2)nc(-c2ccc(Cl)c(C(C)(C)O)c2)n1 [Compound 50]",
    "Category Label": "Criterion met"
  },
  {
    "Compound": "COc1nc(NCCc2ccc(OC(F)F)cc2)nc(-c2cc3c(Cl)cccc3[nH]2)n1 [Compound 42]",
    "Category Label": "Criterion not met"
  },
  {
    "Compound": "COc1nc(NCCc2ccc(F)cc2)nc(-c2ccc3ncccc3c2)n1 [Compound 35]",
    "Category Label": "Criterion not met"
  }
]

I'd appreciate it if you could check whether COc1nc(NCCc2ccc(F)cc2)nc(-c2cccc(OC(C)C)c2)n1 [Compound 2] has IC50 smaller than 20 nM. Criterion not met

Same lookup for COc1nc(NCCc2ccc(F)cc2)nc(-c2ccc(OC)c(OC)c2)n1 [Compound 3] , please. Criterion met

Cool, now COc1nc(NCCc2ccc(F)cc2)nc(-c2ccc(OC)c(C#N)c2)n1 [Compound 64] Criterion met

Continue with COc1nc(NCCc2ccc(F)cc2)nc(-c2ccc3c(c2)OCO3)n1 [Compound 7] Criterion met

* * *

molecular target: human CB2 receptors (Homo sapiens (Human)); test: Affinity binding test on human CB2 receptors (tritiated ligand, membranes of recombinant cell lines); conditions: concentration causing 50% inhibition of specific binding of the tritiated ligand, read-out: IC50 (nM) hCB2
Experimental Readout: IC50 (nM)
Please reply with the bare figure in nM and do not write the unit itself.

Any idea what IC50 was measured for COC(=O)CCc1cccc(-c2nc(NCCc3ccc(F)cc3)nc(OC)n2)c1 [Compound 6] ? 12

* * *

target: human CB2 receptors (Homo sapiens (Human)); experiment: Affinity binding test on human CB2 receptors (tritiated ligand, membranes of recombinant cell lines); conditions: concentration causing 50% inhibition of specific binding of the tritiated ligand, read-out: IC50 (nM) hCB2
Experimental Readout: IC50 (nM)
Number in nM, nothing else.

Here is how some molecules turned out for IC50.
[
  {
    "Chemical Structure": "COc1nc(NCCc2ccc(F)cc2)nc(-c2ccc(F)c3cccnc23)n1",
    "Experimental Readout": "IC50",
    "Reading": 1
  },
  {
    "Chemical Structure": "COc1nc(NCCc2ccc(F)cc2)nc(-c2ccc(Cl)c(OCCCNS(C)(=O)=O)c2)n1",
    "Experimental Readout": "IC50",
    "Reading": 18
  },
  {
    "Chemical Structure": "COc1nc(NCCc2ccc(OCF)cc2)nc(-c2ccc(OC)c(C(C)(C)O)c2)n1",
    "Experimental Readout": "IC50",
    "Reading": 9
  }
]

For the next question, use this molecule.
IC50 lookup needed for `COc1nc(NCCc2ccc(F)cc2)nc(-c2cccc3cccnc23)n1` , thanks. 17

* * *

target: UniProtKB P34972; experiment: Affinity binding test on human CB2 receptors (tritiated ligand, membranes of recombinant cell lines); conditions: concentration causing 50% inhibition of specific binding of the tritiated ligand, read-out: IC50 (nM) hCB2
Experimental Readout: log10 IC50 (log10 of the value in nM)
The figures below represent log10 of IC50, where IC50 is stated in nM.

Would you please look over these solved cases?
[
  {
    "Compound": "COc1nc(NCCc2ccc(F)cc2)nc(-c2cccc(S(=O)(=O)NC3CC3)c2)n1 [Compound 11]",
    "log10 IC50": 0.43
  },
  {
    "Compound": "COc1nc(NCCc2ccc(F)cc2)nc(-c2cc3ccccc3o2)n1 [Compound 30]",
    "log10 IC50": 0.70
  },
  {
    "Compound": "COc1nc(NCCc2ccc(F)cc2)nc(-c2cccc3cnccc23)n1 [Compound 41]",
    "log10 IC50": 1.30
  }
]

Would you mind telling me what log10 IC50 value was observed for COc1nc(NCCc2ccc(F)cc2)nc(-c2cc3cc(Cl)ccc3o2)n1 [Compound 51] ? 1.36

Again, but for COc1nc(NCCc2ccc(F)cc2)nc(-c2ccc(C)c3ncccc23)n1 [Compound 38] 1.58

What about COc1nc(NCCc2ccc(F)cc2)nc(-c2cc3ccc(SC)cc3[nH]2)n1 [Compound 26] ? 1.57

What about COc1nc(NCCc2ccc(F)cc2)nc(-c2cccc(C(C)=O)c2F)n1 [Compound 10] ? 1.00

* * *

target: human CB2 receptors (Homo sapiens (Human)); assay: Affinity binding test on human CB2 receptors (tritiated ligand, membranes of recombinant cell lines); conditions: reported in text, read-out: IC50 on hCB2
Experimental Readout: IC50 (nM)
Give the value, in units of nM, as a plain number.

[
  {
    "Molecule": "CC(C)(O)c1cc(-c2nc(NCCc3ccc(F)cc3)nc(OCF)n2)ccc1Cl [Compound 71]",
    "Unit Text": "nM",
    "Reading": 1.2
  }
]

Give its IC50 value. Item: COc1ccc(-c2nc(NCCc3ccc(F)cc3)nc(OCF)n2)cc1C(C)(C)O [Compound 72] 1.2

* * *

target: UniProt:P34972; assay: Affinity binding test on human CB2 receptors (tritiated ligand, membranes of recombinant cell lines); details: concentration causing 50% inhibition of specific binding of the tritiated ligand, read-out: IC50 (nM) hCB2
IC50 values, listed per item
Quick note: give the figure in nM, leave out the unit.

Look up IC50: `COc1nc(NCCc2ccc(F)cc2)nc(-c2cnc3ccccc3c2)n1` 34

What do we get for `COc1nc(NCCc2ccc(OC(F)F)cc2)nc(-c2cccc(S(=O)(=O)NC3CC3)c2)n1` ? 23

Please do the same for `COc1nc(NCCc2ccc(F)cc2)nc(-c2ccc(C(C)(C)O)c(OC)c2)n1` as well. 17

Another compound to look at: `COc1nc(NCCc2ccc(F)cc2)nc(-c2cc3cc(Br)ccc3[nH]2)n1` 17

Check `COc1nc(NCCc2ccc(F)cc2)nc(-c2cc3ccccc3s2)n1` too. 4

Param item: `COc1nc(NCCc2ccc(F)cc2)nc(-c2ccc(OC)c3nc(C)ccc23)n1` 38

# repeat for `COc1nc(NCCc2ccc(F)cc2)nc(-c2cc3cc(C#N)ccc3[nH]2)n1` 27

Now consider `COc1nc(NCCc2ccc(F)cc2)nc(-c2cc3cc(Cl)ccc3[nH]2)n1` . 14

* * *

Overview of recorded log10 IC50 for various molecules
biological target: human CB2 receptors (Homo sapiens (Human), UniProt P34972); assay: Affinity binding test on human CB2 receptors (tritiated ligand, membranes of recombinant cell lines); conditions: concentration causing 50% inhibition of specific binding of the tritiated ligand, read-out: IC50 (nM) hCB2
Give log10 of IC50, with IC50 taken in nM.

Record excerpt, results attached:
[
  {
    "Chemical Structure": "COc1nc(NCCc2ccc(F)cc2)nc(-c2cc3cc(C)ccc3[nH]2)n1",
    "log10 IC50": 1.38
  },
  {
    "Chemical Structure": "COc1ccc2[nH]c(-c3nc(NCCc4ccc(F)cc4)nc(OC)n3)cc2c1",
    "log10 IC50": 1.32
  },
  {
    "Chemical Structure": "COc1nc(NCCc2ccc(F)cc2)nc(-c2cc3ccc(F)cc3[nH]2)n1",
    "log10 IC50": 1.68
  },
  {
    "Chemical Structure": "COc1nc(NCCc2ccc(F)cc2)nc(-c2ccc3nonc3c2)n1",
    "log10 IC50": 1.62
  }
]

Given the molecule `COc1nc(NCCc2ccc(OC(F)F)cc2)nc(-c2ccc(Cl)c(OCC(N)=O)c2)n1` , what is its reported log10 IC50? 1.04

// next record `COc1nc(NCCc2ccc(OC(F)F)cc2)nc(-c2ccc(C)c(S(=O)(=O)NC3CC3)c2)n1` 1.64

Likewise for `COc1nc(NCCc2ccc(OC(F)F)cc2)nc(-c2cccc(C(C)(C)O)c2)n1` ? 1.26

Same question for `COc1nc(NCCc2ccc(F)cc2)nc(-c2ccc3cc[nH]c3c2)n1` please. 1.15

What do we get for `CCC(O)(CC)c1cccc(-c2nc(NCCc3ccc(F)cc3)nc(OC)n2)c1` ? 1.32

Proceed to `COc1nc(NCCc2ccc(F)cc2)nc(-c2ccc(Cl)c(S(=O)(=O)NC3CC3)c2)n1` 0.60

How about this molecule: `COc1nc(NCCc2ccc(OC(F)F)cc2)nc(-c2cccc(OC)c2C(C)(C)O)n1` 0.60

`COc1nc(NCCc2ccc(F)cc2)nc(-c2cccc3ncccc23)n1` , same question. 1.67

Quick one: `COc1nc(NCCc2ccc(F)cc2)nc(-c2ccc(Cl)c(C(C)(C)O)c2)n1` -0.40

Also `COc1nc(NCCc2ccc(F)cc2)nc(-c2ccc(F)c(C(C)(C)O)c2)n1` ? 0.90

Moving on to `COc1nc(NCCc2ccc(F)cc2)nc(-c2ccc(SC)cc2)n1` 1.15

What would you report for `COc1nc(NCCc2ccc(F)cc2)nc(-c2ccc(CO)c(S(=O)(=O)NC3CC3)c2)n1` ? 1.40

`COc1nc(NCCc2ccc(F)cc2)nc(-c2ccc3[nH]ccc3c2)n1` , same question. 1.53

# repeat for `COc1nc(NCCc2ccc(F)cc2)nc(-c2cncc3ccccc23)n1` 1.32
